Test system: U2OS
Assay: Multiplex assay against U2OS
Type: toxicity, cell-based
Conditions: human, 48 h, 1 µM, compound concentration 1 uM, replicate 2
Each entry below carries its reported Population Healthy Nuclei (%).
Write the answer as a number in %, unit excluded.

Guide cases for Population Healthy Nuclei (%), answers given:
INSERT INTO measurements (compound, experimental_readout, uom, quantitative_result) VALUES
  ('Cc1ccc(/C(=C\CN2CCCC2)c2ccccn2)cc1', 'Population Healthy Nuclei (%)', '%', 75),
  ('O=C(O)c1cc2ccccc2c(Cc2c(O)c(C(=O)O)cc3ccccc23)c1O', 'Population Healthy Nuclei (%)', '%', 76),
  ('c1cc(OCCCN2CCCCC2)ccc1CN1CCCCC1', 'Population Healthy Nuclei (%)', '%', 71),
  ('N#Cc1c(N)nc(SCc2csc(-c3ccc(Cl)cc3)n2)c(C#N)c1-c1ccc(OCCO)cc1', 'Population Healthy Nuclei (%)', '%', 79),
  ('CSc1ccccc1N1CCN(CCCCCC(=O)NC2CCCc3ccccc32)CC1.Cl (stereo not drawn)', 'Population Healthy Nuclei (%)', '%', 52),
  ('O=C1COc2nccc(-c3ccccc3F)c2CN1Cc1cc(C(F)(F)F)cc(C(F)(F)F)c1', 'Population Healthy Nuclei (%)', '%', 69),
  ('CN(C)c1ccnc2sc3c(=O)n(N4CCCCCC4)cnc3c12', 'Population Healthy Nuclei (%)', '%', 72),
  ('CCOc1c2c(c(OCC)c3ncccc13)CN(c1ccc(CS(=O)(=O)NC(=O)Cc3ccccc3OC)cc1C)C2=O', 'Population Healthy Nuclei (%)', '%', 79),
  ('COc1cc(C(=O)N(CCCc2ccccc2)Cc2ccc(CC(=O)O)cc2)cc(OC)c1C', 'Population Healthy Nuclei (%)', '%', 64),
  ('Cc1ccccc1C(=O)Nc1ccc(C(=O)N2CCCC(N(C)C)c3ccccc32)cc1.Cl (stereo not drawn)', 'Population Healthy Nuclei (%)', '%', 72);

QUERY: API: value(readout= Population Healthy Nuclei (%), system= U2OS, query= CC(=O)NCCc1c(Cc2ccccc2)[nH]c2ccccc12 )
RESULT: 77

QUERY: API: value(readout= Population Healthy Nuclei (%), system= U2OS, query= COc1ccc2c(c1)C(C(=O)N(Cc1ccc(N(C)C)cc1)c1ccc(C(C)C)cc1)CCC2.Cl (stereo not drawn) )
RESULT: 73

QUERY: API: value(readout= Population Healthy Nuclei (%), system= U2OS, query= CC[C@H]1OC(=O)[C@H](C)[C@@H](O[C@H]2C[C@@](C)(OC)[C@@H](O)[C@H](C)O2)[C@H](C)[C@@H](O[C@@H]2O[C@H](C)C[C@H](N(C)C)[C@H]2O)[C@@]2(C)CC(C)=C(O2)[C@H](C)[C@@H](O)[C@]1(C)O )
RESULT: 58

QUERY: API: value(readout= Population Healthy Nuclei (%), system= U2OS, query= CC(C)(C)c1ccc(S(=O)(=O)Nc2ccc(Cl)cc2C(=O)c2cc[n+]([O-])cc2)cc1 )
RESULT: 75

QUERY: API: value(readout= Population Healthy Nuclei (%), system= U2OS, query= COc1c(C)cc(NC(=O)c2nn(Cc3ccc(F)cc3)c3c2CN(C(=O)c2ccc[nH]2)C[C@]3(C)C(N)=O)cc1C )
RESULT: 70

QUERY: API: value(readout= Population Healthy Nuclei (%), system= U2OS, query= Cc1nc2ccc(Oc3ccc(F)cc3)cc2c(=O)n1C[C@H]1CCCN(C(C)C)C1.Cl )
RESULT: 72

QUERY: API: value(readout= Population Healthy Nuclei (%), system= U2OS, query= Cc1ccc(C(C)(O)c2nc3ccccc3s2)c(C)c1 (stereo not drawn) )
RESULT: 76

QUERY: API: value(readout= Population Healthy Nuclei (%), system= U2OS, query= CN1CCN2c3ncccc3Cc3ccccc3C2C1 (stereo not drawn) )
RESULT: 68

Origin of values: ChEMBL document CHEMBL5058577
